Assignment: determine reported IC50 for the given compounds.
tested on: BGC823 cell line; test: MTT test of inhibiting tumor cell activity, BGC823; settings: read-out: Cytotoxic activity (IC50, μM) BGC823; BGC823 cells, MTT, 48 h cultivation
Just the number plus its unit, please.

I have this compound here, COc1cc(C2c3cc4c(cc3C(Nc3ccccc3C(F)(F)F)C3COC(=O)C23)OCO4)cc(OC)c1OC (stereo not shown) , and I need its recorded IC50.
23.2 µM

Same lookup for COc1cc(C2c3cc4c(cc3C(Nc3ccccc3Sc3ccccc3N)C3COC(=O)C23)OCO4)cc(OC)c1OC (stereo not shown) , please.
6.46 µM

Same lookup for COc1cc(C2c3cc4c(cc3C(Nc3ccccc3Sc3ccccc3N)C3COC(=O)C23)OCO4)cc(OC)c1O (stereo not shown) , please.
2.17 µM

Same lookup for COc1ccc(Cl)cc1NC1c2cc3c(cc2C(c2cc(OC)c(OC)c(OC)c2)C2C(=O)OCC12)OCO3 (stereo not shown) , please.
1.24 µM
